Ref: PubChem BioAssay AID2718

Molecular target: Histone deacetylase 3 (Homo sapiens) (UniProt O15379)
Sequence (O15379 whole entry, looked up): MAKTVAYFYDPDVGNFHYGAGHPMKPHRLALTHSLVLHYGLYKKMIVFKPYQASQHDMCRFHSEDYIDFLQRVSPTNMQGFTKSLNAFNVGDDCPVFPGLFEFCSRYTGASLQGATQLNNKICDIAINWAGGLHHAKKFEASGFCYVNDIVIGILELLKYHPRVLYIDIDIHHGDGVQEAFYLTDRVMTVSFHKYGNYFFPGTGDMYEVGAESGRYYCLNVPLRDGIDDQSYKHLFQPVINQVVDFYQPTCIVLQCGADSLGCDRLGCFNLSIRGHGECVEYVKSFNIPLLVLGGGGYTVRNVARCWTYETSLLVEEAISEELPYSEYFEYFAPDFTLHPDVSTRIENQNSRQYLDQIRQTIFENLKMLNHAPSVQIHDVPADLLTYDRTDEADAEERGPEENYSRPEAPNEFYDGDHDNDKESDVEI
Test: HDAC3 deacetylase inhibitors, primary screen, biochemical, fluorescence, cell-free homogeneous (AID 2718)
Conditions: recombinant HDAC3, fluorogenic peptide/trypsin coupled, at 8.3 µM, hits give high values
The whole screen tested about 320,000 compounds, of which about 480 (0.15%) were called active. Another 1% or so got no clear call; they are omitted. What follows is part of a selection rich in actives, with near analogues and random picks from the rest.
RESULT_TYPE: inhibition (%)

{"COMPOUND": "COCCCNC(=O)CC1C[C@H](C(=O)N2CCCCC2)[C@@]2(CCc3ccccc3)c3[nH]c4ccccc4c3CCN2C1=O (stereo not given in full)", "RESULT_TYPE": "inhibition", "MEASURED_RESULT": -3.31}
{"COMPOUND": "O=C(CCNC(=O)c1ccc(Br)cc1)NCC(c1ccco1)N1CCCCC1 (stereo not given)", "RESULT_TYPE": "inhibition", "MEASURED_RESULT": 2.98}
{"COMPOUND": "COc1ccc(NC(=O)CNC(=O)Cn2ccc3ccccc3c2=O)c(OC)c1", "RESULT_TYPE": "inhibition", "MEASURED_RESULT": -0.211}
{"COMPOUND": "O=C1N(c2ccccc2)C(=Nc2ccccc2)SC12CC2", "RESULT_TYPE": "inhibition", "MEASURED_RESULT": 1.18}
{"COMPOUND": "Cc1cc(NC(=O)CSc2nnc(-c3ccco3)n2N)no1", "RESULT_TYPE": "inhibition", "MEASURED_RESULT": 2.85}
